Target: Bcl-2 (Homo sapiens (Human), UniProt P10415)
Sequence (P10415 whole entry): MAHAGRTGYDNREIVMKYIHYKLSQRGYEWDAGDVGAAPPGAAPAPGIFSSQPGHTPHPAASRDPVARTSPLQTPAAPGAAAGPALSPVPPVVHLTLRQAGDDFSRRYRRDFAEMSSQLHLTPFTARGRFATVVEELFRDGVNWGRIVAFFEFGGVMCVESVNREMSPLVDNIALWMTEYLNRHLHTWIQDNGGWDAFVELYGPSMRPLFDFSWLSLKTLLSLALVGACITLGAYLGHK
pKi: −log10 of the molar value.
Respond with fulfilled for pKi values of 9 and above, not fulfilled for values below.

(Q) Does the reported pKi for CN(CCSc1ccccc1)C1CCN(S(=O)(=O)NC(=O)c2ccc(N3CCN(Cc4ccccc4-c4ccc(Cl)cc4)CC3)cc2)CC1 fall at or above the 9 mark?
(A) not fulfilled

(Q) Does the reported pKi for Cc1nc(OC[C@@H]2CN(C(=O)OC(C)(C)C)CCO2)sc1S(=O)(=O)NC(=O)c1ccc(N2CCN(CC3=C(c4ccc(Cl)cc4)CC(C)(C)CC3)CC2)cc1Oc1cccc2[nH]cnc12 fall at or above the 9 mark?
(A) not fulfilled

(Q) Does the reported pKi for Cc1cc(C)n2nc(S(=O)(=O)NC(=O)c3ccc(N4CCN(CC5=C(c6ccc(Cl)cc6)CC(C)(C)CC5)CC4)cc3Oc3cc4cc[nH]c4cc3F)nc2n1 fall at or above the 9 mark?
(A) fulfilled

(Q) Does the reported pKi for O=C(NS(=O)(=O)c1ccc(/C=C/c2ncon2)s1)c1ccc(N2CCN(Cc3ccccc3-c3ccc(Cl)cc3)CC2)cc1 fall at or above the 9 mark?
(A) not fulfilled

(Q) Does the reported pKi for Cc1c(S(=O)(=O)NC(=O)c2ccc(N3CCN(Cc4ccccc4-c4ccc(Cl)cc4)CC3)cc2)sc2ccc(Br)cc12 fall at or above the 9 mark?
(A) not fulfilled
